# system: Aurora kinase A (Homo sapiens); note: in the data inactive means no Kd found up to 30 µM
# Sequence (O14965 whole entry): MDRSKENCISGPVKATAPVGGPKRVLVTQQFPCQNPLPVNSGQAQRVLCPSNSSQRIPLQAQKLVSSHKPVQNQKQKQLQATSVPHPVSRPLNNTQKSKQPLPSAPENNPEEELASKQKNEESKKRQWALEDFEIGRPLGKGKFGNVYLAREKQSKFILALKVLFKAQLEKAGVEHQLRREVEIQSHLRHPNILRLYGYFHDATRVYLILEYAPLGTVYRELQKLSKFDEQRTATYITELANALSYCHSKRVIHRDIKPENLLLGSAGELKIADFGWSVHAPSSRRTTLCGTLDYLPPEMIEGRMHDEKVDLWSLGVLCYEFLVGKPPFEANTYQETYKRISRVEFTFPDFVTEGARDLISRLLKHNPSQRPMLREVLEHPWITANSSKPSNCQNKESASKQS
The source made the active and inactive calls.
Valid outcomes are listed here; reply with one: class 1 (active), class 0 (inactive)

Below are worked cases with known answers.
>  <compound>
CC(C)c1cc(CNc2nc(Nc3cc(C4CC4)[nH]n3)cc(N3CCN(C)CC3)n2)on1

>  <answer-label>
class 1

$$$$
>  <compound>
Cc1nc(NC(=O)N2CCC[C@H]2C(N)=O)sc1-c1ccnc(C(C)(C)C(F)(F)F)c1

>  <answer-label>
class 0

$$$$
>  <compound>
O=c1[nH]ccc2cc(OC3CCNCC3)ccc12 [SAR-407899 FREE BASE]

>  <answer-label>
class 0

$$$$
>  <compound>
O=C(Cc1ccc(-c2ccc(OCCN3CCOCC3)cc2)cn1)NCc1ccccc1

>  <answer-label>
class 0

$$$$
>  <compound>
Cc1cc(C(=O)NOCCO)c(Nc2ccc(I)cc2F)n(C)c1=O

>  <answer-label>
class 0

$$$$

Q. # fetch the recorded call for CCn1c(C(=O)N(C2CC2)C2CC2)cc2c3c(ncn3C)c(Nc3cc(C)n(C)n3)nc21 here
A. class 0

Q. Dear all, I need the recorded test outcome for CO[C@H]1C[C@@H]2CC[C@@H](C)[C@@](O)(O2)C(=O)C(=O)N2CCCC[C@H]2C(=O)O[C@H]([C@H](C)C[C@@H]2CC[C@@H](OP(C)(C)=O)[C@H](OC)C2)CC(=O)[C@H](C)/C=C(\C)[C@@H](O)[C@@H](OC)C(=O)[C@H](C)C[C@H](C)/C=C/C=C/C=C/1C , thank you.
A. class 0

Q. Hi, sorry to bother you, what did the test record for CNC(=O)c1cc(Oc2ccc(NC(=O)Nc3cc(C(C)(C)C)nn3-c3ccc4ncccc4c3)c(F)c2)ccn1 ?
A. class 0

Q. What did the test return for C[C@@H](Oc1cc(C(=O)Nc2ccc(C(=O)N3CCN(C)CC3)cc2)nnc1N)c1c(Cl)ccc(F)c1Cl ?
A. class 0

Q. Recorded test call requested for CCOc1cc2ncc(C#N)c(Nc3ccc(F)c(Cl)c3)c2cc1NC(=O)/C=C/CN(C)C
A. class 0

Q. How was COc1c(OCCCN2CCOCC2)ccc2c1N=C(NC(=O)c1cnc(N)nc1)N1CCN=C21 classified in this test?
A. class 0

Q. I would be grateful if you could indicate the recorded call for N#CC1(c2ccc(NC(=O)c3cccnc3NCc3ccncc3)cc2)CCCC1 .
A. class 0

====

# system: Serine/threonine-protein kinase 10 (Homo sapiens); note: in the data inactive means no Kd found up to 30 µM
# Sequence (O94804 whole entry): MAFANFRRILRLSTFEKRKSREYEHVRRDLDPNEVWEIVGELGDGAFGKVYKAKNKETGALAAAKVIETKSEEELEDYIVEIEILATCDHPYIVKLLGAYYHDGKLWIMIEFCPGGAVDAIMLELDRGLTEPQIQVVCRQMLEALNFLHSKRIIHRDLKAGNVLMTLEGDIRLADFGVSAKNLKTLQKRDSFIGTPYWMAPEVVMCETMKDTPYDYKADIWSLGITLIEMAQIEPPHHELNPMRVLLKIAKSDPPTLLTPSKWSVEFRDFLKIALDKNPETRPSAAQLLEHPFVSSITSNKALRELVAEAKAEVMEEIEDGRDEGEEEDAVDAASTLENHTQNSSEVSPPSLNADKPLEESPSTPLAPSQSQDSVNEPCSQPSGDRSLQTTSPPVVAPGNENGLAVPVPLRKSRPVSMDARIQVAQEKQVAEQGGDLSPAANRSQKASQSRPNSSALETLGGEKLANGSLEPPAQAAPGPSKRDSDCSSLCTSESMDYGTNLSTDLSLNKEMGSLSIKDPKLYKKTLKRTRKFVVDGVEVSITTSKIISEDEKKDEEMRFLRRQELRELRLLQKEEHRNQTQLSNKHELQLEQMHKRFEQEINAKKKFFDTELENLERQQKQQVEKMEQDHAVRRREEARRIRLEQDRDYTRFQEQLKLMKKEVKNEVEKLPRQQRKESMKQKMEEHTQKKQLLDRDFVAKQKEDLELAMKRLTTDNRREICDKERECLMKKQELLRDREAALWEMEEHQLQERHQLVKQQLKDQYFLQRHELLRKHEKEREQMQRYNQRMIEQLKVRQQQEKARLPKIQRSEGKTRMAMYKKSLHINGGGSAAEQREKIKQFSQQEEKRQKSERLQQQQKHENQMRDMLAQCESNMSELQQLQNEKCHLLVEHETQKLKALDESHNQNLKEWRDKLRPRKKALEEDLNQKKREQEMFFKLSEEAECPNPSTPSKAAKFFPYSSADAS
Calls of active or inactive are those of the source.
Hi there, use one of these labels in your reply, thanks! t = active, f = inactive

Solved cases (3 shown):
>  <mol>
CC(=O)NCC(=O)N1[C@@H]2CC[C@H]1c1ccc(Nc3ncc(C(F)(F)F)c(NC4CCC4)n3)cc12

>  <system>
Serine/threonine-protein kinase 10 (Homo sapiens); note: in the data inactive means no Kd found up to 30 µM

>  <answer-label>
t

$$$$
>  <mol>
O=C(Nc1c[nH]nc1-c1nc2cc(CN3CCOCC3)ccc2[nH]1)NC1CC1

>  <system>
Serine/threonine-protein kinase 10 (Homo sapiens); note: in the data inactive means no Kd found up to 30 µM

>  <answer-label>
t

$$$$
>  <mol>
O=C(Cc1ccc(-c2ccc(OCCN3CCOCC3)cc2)cn1)NCc1ccccc1

>  <system>
Serine/threonine-protein kinase 10 (Homo sapiens); note: in the data inactive means no Kd found up to 30 µM

>  <answer-label>
f

$$$$

We now examine a further molecule.
Q. Could you kindly confirm the outcome this assay logged for Cc1cnc(NC(=O)Nc2cc(Br)c(C)cc2OC[C@@H]2CNCCO2)cn1 ?
A. f

====

# system: NUAK family SNF1-like kinase 2 (Homo sapiens, UniProt Q9H093); note: in the data inactive means no Kd found up to 30 µM
# Sequence (Q9H093 whole entry): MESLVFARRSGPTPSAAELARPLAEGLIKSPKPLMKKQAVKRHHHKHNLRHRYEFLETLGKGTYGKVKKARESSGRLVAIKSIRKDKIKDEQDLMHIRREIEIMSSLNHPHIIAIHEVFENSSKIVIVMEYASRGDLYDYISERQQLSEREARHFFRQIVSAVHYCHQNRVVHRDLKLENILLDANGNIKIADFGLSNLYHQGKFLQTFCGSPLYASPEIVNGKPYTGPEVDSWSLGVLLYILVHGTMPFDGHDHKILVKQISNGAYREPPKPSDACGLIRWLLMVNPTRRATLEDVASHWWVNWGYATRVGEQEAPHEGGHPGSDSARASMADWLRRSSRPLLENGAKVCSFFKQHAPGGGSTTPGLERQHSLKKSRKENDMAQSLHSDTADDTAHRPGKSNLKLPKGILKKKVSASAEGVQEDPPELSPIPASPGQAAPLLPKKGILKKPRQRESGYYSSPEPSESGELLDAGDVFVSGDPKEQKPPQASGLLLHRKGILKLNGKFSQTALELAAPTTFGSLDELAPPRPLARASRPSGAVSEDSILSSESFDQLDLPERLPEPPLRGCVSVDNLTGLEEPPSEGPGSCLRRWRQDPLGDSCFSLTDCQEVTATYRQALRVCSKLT
Calls of active or inactive are those of the source.
Lab note: assign the record to one of active, inactive

>  <compound>
COCC(=O)NC/C=C/c1ccc2ncnc(Nc3ccc(Oc4ccc(C)nc4)c(C)c3)c2c1

>  <system>
NUAK family SNF1-like kinase 2 (Homo sapiens, UniProt Q9H093); note: in the data inactive means no Kd found up to 30 µM

>  <answer-label>
inactive

$$$$
>  <compound>
NC1(c2ccc(-c3nc4ccn5c(=O)[nH]nc5c4cc3-c3ccccc3)cc2)CCC1

>  <system>
NUAK family SNF1-like kinase 2 (Homo sapiens, UniProt Q9H093); note: in the data inactive means no Kd found up to 30 µM

>  <answer-label>
inactive

$$$$
>  <compound>
CO[C@H]1C[C@@H]2CC[C@@H](C)[C@@](O)(O2)C(=O)C(=O)N2CCCC[C@H]2C(=O)O[C@H]([C@H](C)C[C@@H]2CC[C@@H](OC(=O)C(C)(CO)CO)[C@H](OC)C2)CC(=O)[C@H](C)/C=C(\C)[C@@H](O)[C@@H](OC)C(=O)[C@H](C)C[C@H](C)/C=C/C=C/C=C/1C

>  <system>
NUAK family SNF1-like kinase 2 (Homo sapiens, UniProt Q9H093); note: in the data inactive means no Kd found up to 30 µM

>  <answer-label>
inactive

$$$$
>  <compound>
COc1ncc(-c2ccc3nccc(-c4ccnnc4)c3c2)cc1NS(=O)(=O)c1ccc(F)cc1F

>  <system>
NUAK family SNF1-like kinase 2 (Homo sapiens, UniProt Q9H093); note: in the data inactive means no Kd found up to 30 µM

>  <answer-label>
inactive

$$$$
>  <compound>
O=C(Nc1c[nH]nc1-c1nc2cc(CN3CCOCC3)ccc2[nH]1)NC1CC1

>  <system>
NUAK family SNF1-like kinase 2 (Homo sapiens, UniProt Q9H093); note: in the data inactive means no Kd found up to 30 µM

>  <answer-label>
inactive

$$$$
>  <compound>
CN1CCN(CCOc2cc(OC3CCOCC3)c3c(Nc4c(Cl)ccc5c4OCO5)ncnc3c2)CC1

>  <system>
NUAK family SNF1-like kinase 2 (Homo sapiens, UniProt Q9H093); note: in the data inactive means no Kd found up to 30 µM

>  <answer-label>
inactive

$$$$

From here, focus on the item given below.
Q. Returns: the outcome recorded for CC(=O)c1cnc2ccc(-c3cc(Cl)c(O)c(Cl)c3)nc2c1N[C@H]1CC[C@H](CN(C)C)CC1 in this assay.
A. inactive

====

# system: Deoxycytidine kinase (Homo sapiens); note: in the data inactive means no Kd found up to 30 µM
# Sequence (P27707 whole entry): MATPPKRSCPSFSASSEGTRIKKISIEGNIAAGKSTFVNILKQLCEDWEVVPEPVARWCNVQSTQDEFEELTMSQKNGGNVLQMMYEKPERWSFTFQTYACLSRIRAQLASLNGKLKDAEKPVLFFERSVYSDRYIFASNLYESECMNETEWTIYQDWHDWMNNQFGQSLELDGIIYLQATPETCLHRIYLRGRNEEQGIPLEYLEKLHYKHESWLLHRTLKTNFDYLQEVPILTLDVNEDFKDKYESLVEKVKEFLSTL
The source made the active and inactive calls.
// classify into Y for active, N for inactive

>  <compound>
C[C@@H](N)c1ccc(C(=O)Nc2ccnc3[nH]ccc23)cc1 [Y-39983]

>  <answer-label>
N

$$$$
>  <compound>
CO[C@H]1C[C@@H]2CC[C@@H](C)[C@@](O)(O2)C(=O)C(=O)N2CCCC[C@H]2C(=O)O[C@H]([C@H](C)C[C@@H]2CC[C@@H](OC(=O)C(C)(CO)CO)[C@H](OC)C2)CC(=O)[C@H](C)/C=C(\C)[C@@H](O)[C@@H](OC)C(=O)[C@H](C)C[C@H](C)/C=C/C=C/C=C/1C [TEMSIROLIMUS]

>  <answer-label>
N

$$$$
>  <compound>
C[C@@H](Oc1cc(-n2cnc3ccc(CN4CCN(C)CC4)cc32)sc1C(N)=O)c1ccccc1C(F)(F)F [GSK-461364]

>  <answer-label>
N

$$$$
>  <compound>
Cc1cc(C(=O)NOCCO)c(Nc2ccc(I)cc2F)n(C)c1=O [AZD-8330]

>  <answer-label>
N

$$$$
>  <compound>
COc1c(OCCCN2CCOCC2)ccc2c1N=C(NC(=O)c1cnc(N)nc1)N1CCN=C21 [COPANLISIB]

>  <answer-label>
N

$$$$

Q. Please indicate how the test categorized NC1(c2ccc(-c3nc4ccn5c(=O)[nH]nc5c4cc3-c3ccccc3)cc2)CCC1 [MK-2206] .
A. N

Q. Recorded test outcome, item CN1C/C=C/CCOc2cccc(c2)-c2ccnc(n2)Nc2cccc(c2)C1 [ZOTIRACICLIB]
A. N

====

# system: Serine/threonine-protein kinase PLK4 (Homo sapiens); note: in the data inactive means no Kd found up to 30 µM
# Sequence (O00444 whole entry): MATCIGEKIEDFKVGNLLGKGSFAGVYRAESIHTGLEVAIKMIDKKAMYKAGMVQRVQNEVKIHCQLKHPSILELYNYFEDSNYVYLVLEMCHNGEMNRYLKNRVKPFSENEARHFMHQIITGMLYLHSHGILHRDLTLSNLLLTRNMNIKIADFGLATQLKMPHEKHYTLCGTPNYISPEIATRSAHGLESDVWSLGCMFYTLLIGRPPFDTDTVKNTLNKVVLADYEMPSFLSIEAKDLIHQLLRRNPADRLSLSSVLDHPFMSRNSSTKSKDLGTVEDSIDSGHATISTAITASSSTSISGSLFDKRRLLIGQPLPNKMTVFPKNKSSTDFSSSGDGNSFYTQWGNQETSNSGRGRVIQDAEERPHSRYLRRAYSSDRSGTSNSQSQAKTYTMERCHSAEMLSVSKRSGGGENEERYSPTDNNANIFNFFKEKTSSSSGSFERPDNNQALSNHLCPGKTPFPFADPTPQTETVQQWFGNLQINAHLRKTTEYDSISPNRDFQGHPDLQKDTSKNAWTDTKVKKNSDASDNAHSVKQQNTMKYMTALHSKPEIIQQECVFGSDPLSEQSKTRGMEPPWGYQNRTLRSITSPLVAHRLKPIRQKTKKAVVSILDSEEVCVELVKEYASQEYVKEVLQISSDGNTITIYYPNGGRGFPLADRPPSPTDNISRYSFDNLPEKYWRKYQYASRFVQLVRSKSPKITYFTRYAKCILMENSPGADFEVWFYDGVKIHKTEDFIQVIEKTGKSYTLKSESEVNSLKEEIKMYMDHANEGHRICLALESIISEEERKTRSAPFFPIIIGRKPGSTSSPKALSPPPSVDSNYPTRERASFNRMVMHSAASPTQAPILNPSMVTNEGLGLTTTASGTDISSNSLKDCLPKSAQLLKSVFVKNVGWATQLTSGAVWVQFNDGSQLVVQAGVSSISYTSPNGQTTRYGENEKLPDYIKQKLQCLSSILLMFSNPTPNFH
Activity calls are given as the source filed them.
Response enum: active, inactive

Some solved entries appear below for comparison.
>  <compound>
C[C@H]1CNCCCN1S(=O)(=O)c1cccc2cncc(F)c12

>  <answer-label>
active

$$$$
>  <compound>
CO[C@H]1C[C@@H]2CC[C@@H](C)[C@@](O)(O2)C(=O)C(=O)N2CCCC[C@H]2C(=O)O[C@H]([C@H](C)C[C@@H]2CC[C@@H](OC(=O)C(C)(CO)CO)[C@H](OC)C2)CC(=O)[C@H](C)/C=C(\C)[C@@H](O)[C@@H](OC)C(=O)[C@H](C)C[C@H](C)/C=C/C=C/C=C/1C [TEMSIROLIMUS]

>  <answer-label>
inactive

$$$$
>  <compound>
CNC(=O)c1cccc2cc(Oc3ccnc4cc(OCC5(N)CC5)c(OC)cc34)ccc12 [LUCITANIB]

>  <answer-label>
inactive

$$$$
>  <compound>
COc1ncc(-c2ccc3nccc(-c4ccnnc4)c3c2)cc1NS(=O)(=O)c1ccc(F)cc1F [OMIPALISIB]

>  <answer-label>
inactive

$$$$

Q. Name the outcome recorded for CCS(=O)(=O)c1cccc(-c2cc(C(=O)NC3CCN(C)CC3)c(C)c3[nH]c4ncc(C)cc4c23)c1 [TAK-901] in the assay.
A. active

Q. GET /call?item= COCc1c(-c2ccc(NC(=O)Nc3cc(C(F)(F)F)ccc3F)c(F)c2)c2c(N)ncnn2c1CN1CCOCC1 returns the recorded outcome of this test.
A. inactive

Q. Called result for C[C@@H](N)c1ccc(C(=O)Nc2ccnc3[nH]ccc23)cc1 [Y-39983]
A. inactive

Q. GET /call?item= C#Cc1cccc(Nc2ncnc3cc(OC)c(OCCCCCCC(=O)NO)cc23)c1 [CUDC-101] returns the recorded outcome of this test.
A. inactive

Q. Hey, what did the test say about C=CC(=O)N1CCC[C@H](n2c(=O)n(-c3ccc(Oc4ccccc4)cc3)c3c(N)ncnc32)C1 ?
A. inactive
